test system: LOC_OS07G06570-cb004; test: thermal shift delta Tm vs DMSO control; higher = stronger stabilization (binding); settings: 12.5 µM; protein concentration 2 µM;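 also: purified Escherichia coli-expressed rice kinase domain construct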
property_label: thermal shift delta Tm (°C)
Report the figure in °C without appending any unit label.

Q: API: value(readout= thermal shift delta Tm, system= LOC_OS07G06570-cb004, query= O=c1ncn2nc(Sc3ccc(F)cc3F)ccc2c1-c1c(Cl)cccc1Cl )
Ans: 0.75

Q: API: value(readout= thermal shift delta Tm, system= LOC_OS07G06570-cb004, query= Cn1cc(-c2ccc3ncc(Cc4ccc5ncccc5c4)n3n2)cn1 )
Ans: 0.78

Q: API: value(readout= thermal shift delta Tm, system= LOC_OS07G06570-cb004, query= COc1cc(Nc2ncc(F)c(Nc3ccc4c(n3)NC(=O)C(C)(C)O4)n2)cc(OC)c1OC )
Ans: 0.43

Q: API: value(readout= thermal shift delta Tm, system= LOC_OS07G06570-cb004, query= Cc1nc(Nc2n[nH]c3c2CN(C(=O)N[C@H](CN(C)C)c2ccccc2)C3(C)C)c2sccc2n1 )
Ans: 1.67

Q: API: value(readout= thermal shift delta Tm, system= LOC_OS07G06570-cb004, query= Cc1ccc(C(=O)Nc2ccc(Oc3cc4cnn(C)c4cc3-c3cn[nH]c3)c(F)c2)c(=O)n1-c1ccc(F)cc1 )
Ans: 1.37

====

system: LOC_OS01G10900-cb004; experiment: thermal shift delta Tm vs DMSO control; higher = stronger stabilization (binding); settings: 12.5 µM; protein concentration 2 µM
Counter-ions that a name gives are not always drawn.
property_label: thermal shift delta Tm (°C)
Report the figure in °C without appending any unit label.

Q: API: value(readout= thermal shift delta Tm, system= LOC_OS01G10900-cb004, query= C#Cc1cccc(Nc2ncnc3cc(OC)c(OCCCCCCC(=O)NO)cc23)c1 )
Ans: 0.97

Q: API: value(readout= thermal shift delta Tm, system= LOC_OS01G10900-cb004, query= C[C@@H]1COCCN1c1cc(=O)n2c(n1)N(Cc1cncc(Cl)c1)[C@H](C(F)(F)F)CC2 )
Ans: 0.48

Q: API: value(readout= thermal shift delta Tm, system= LOC_OS01G10900-cb004, query= O=c1nc(N2CCOCC2)oc2c(-c3cccc4c3sc3ccccc34)cccc12 )
Ans: 3.3

Q: API: value(readout= thermal shift delta Tm, system= LOC_OS01G10900-cb004, query= CC1(C)OCCn2c1nc1c(N3CCOCC3)nc(-c3cnc(N)nc3)nc12 )
Ans: 1.05

Q: API: value(readout= thermal shift delta Tm, system= LOC_OS01G10900-cb004, query= C1=N/C2=N/c3ccc(OCCN4CCCC4)c(c3)COC/C=C/COCc3cccc(c3)C(=C1)N2 [Pacritinib (SB1518)] )
Ans: 2.75

Q: API: value(readout= thermal shift delta Tm, system= LOC_OS01G10900-cb004, query= c1cc(-c2cnn3cc(-c4ccc(OCCN5CCCCC5)cc4)cnc23)ccn1 [Dorsomorphin 2HCl] )
Ans: 8.66

Q: API: value(readout= thermal shift delta Tm, system= LOC_OS01G10900-cb004, query= Nc1cc(C(F)(F)F)c(-c2cc(N3CCOCC3)nc(N3CCOCC3)n2)cn1 [Buparlisib (BKM120, NVP-BKM120)] )
Ans: 0.31

Q: API: value(readout= thermal shift delta Tm, system= LOC_OS01G10900-cb004, query= CN(C)Cc1cccc(N/C(=C2\C(=O)Nc3cc(C(N)=O)ccc32)c2ccccc2)c1 )
Ans: 1.98

Q: API: value(readout= thermal shift delta Tm, system= LOC_OS01G10900-cb004, query= CNC(=O)c1cc(Oc2ccc(NC(=O)Nc3cc(C(C)(C)C)nn3-c3ccc4ncccc4c3)c(F)c2)ccn1 [Rebastinib (DCC-2036)] )
Ans: 0.98

Q: API: value(readout= thermal shift delta Tm, system= LOC_OS01G10900-cb004, query= CC(=O)Nc1nc(C)c(-c2ccc(Cl)c(S(=O)(=O)NCCO)c2)s1 )
Ans: 1.52

Q: API: value(readout= thermal shift delta Tm, system= LOC_OS01G10900-cb004, query= CNC(=O)c1cccc(-c2ccc3c(N4CCOC[C@@H]4C)nc(N4CCOC[C@@H]4C)nc3n2)c1 [Vistusertib (AZD2014)] )
Ans: 0.09

Q: API: value(readout= thermal shift delta Tm, system= LOC_OS01G10900-cb004, query= CCOc1cc2ncc(C#N)c(Nc3ccc(F)c(Cl)c3)c2cc1NC(=O)/C=C/CN(C)C [Pelitinib (EKB-569)] )
Ans: 1.14

Q: API: value(readout= thermal shift delta Tm, system= LOC_OS01G10900-cb004, query= CCc1cc(Nc2nccc(-c3c(-c4ccc(OC)c(C(=O)Nc5c(F)cccc5F)c4)nc4ccccn34)n2)c(OC)cc1N1CCC(N2CCN(S(C)(=O)=O)CC2)CC1 )
Ans: 0.34

Q: API: value(readout= thermal shift delta Tm, system= LOC_OS01G10900-cb004, query= N#CC1(c2ccc(NC(=O)c3cccnc3NCc3ccncc3)cc2)CCCC1 [Apatinib] )
Ans: 0.27

Q: API: value(readout= thermal shift delta Tm, system= LOC_OS01G10900-cb004, query= CCCCNc1ncc(C(=O)NCc2ccc(-n3ccnc3)cc2)c(NC2CCC(O)CC2)n1 (stereo not drawn) )
Ans: 0.58

Q: API: value(readout= thermal shift delta Tm, system= LOC_OS01G10900-cb004, query= O=c1cc(N2CCOCC2)oc2c(-c3ccc4c(c3)OCCO4)csc12 )
Ans: 3.38

Q: API: value(readout= thermal shift delta Tm, system= LOC_OS01G10900-cb004, query= CCn1c(=O)c(-c2cc[nH]n2)cc2c(C)nc(N)nc21 )
Ans: 0.44

Q: API: value(readout= thermal shift delta Tm, system= LOC_OS01G10900-cb004, query= COc1ccc(Cl)c(Nc2nc3ccccc3nc2NS(=O)(=O)c2cccc(NC(=O)C(C)(C)N)c2)c1 [Pilaralisib (XL147)] )
Ans: 0.29

Q: API: value(readout= thermal shift delta Tm, system= LOC_OS01G10900-cb004, query= CN1CCN(c2nc(C3=C(c4c[nH]c5ccccc45)C(=O)NC3=O)c3ccccc3n2)CC1 [Sotrastaurin] )
Ans: 0.77

Q: API: value(readout= thermal shift delta Tm, system= LOC_OS01G10900-cb004, query= CC(C)c1c2cc(-c3ccnc(NC4CCC(NC5CCOCC5)CC4)n3)ccc2nn1C (stereo not drawn) )
Ans: 1.83

Q: API: value(readout= thermal shift delta Tm, system= LOC_OS01G10900-cb004, query= CCS(=O)(=O)N1CC(CC#N)(n2cc(-c3ncnc4[nH]ccc34)cn2)C1 )
Ans: 0.33

Q: API: value(readout= thermal shift delta Tm, system= LOC_OS01G10900-cb004, query= CO[C@@H](C(=O)N1Cc2[nH]nc(NC(=O)c3ccc(N4CCN(C)CC4)cc3)c2C1)c1ccccc1 )
Ans: 6.13

Q: API: value(readout= thermal shift delta Tm, system= LOC_OS01G10900-cb004, query= COc1cc2nccc(Oc3ccc(NC(=O)NC4CC4)c(Cl)c3)c2cc1C(N)=O [Lenvatinib (E7080)] )
Ans: 0.52

Q: API: value(readout= thermal shift delta Tm, system= LOC_OS01G10900-cb004, query= Cn1cc(-c2ccc3c(c2)CCN3C(=O)Cc2cccc(C(F)(F)F)c2)c2c(N)ncnc21 )
Ans: 2.83

Q: API: value(readout= thermal shift delta Tm, system= LOC_OS01G10900-cb004, query= CNC(=O)c1cc(Oc2ccc(NC(=O)Nc3ccc(Cl)c(C(F)(F)F)c3)c(F)c2)ccn1 [Regorafenib (BAY 73-4506)] )
Ans: 0.16

Q: API: value(readout= thermal shift delta Tm, system= LOC_OS01G10900-cb004, query= CN(C)Cc1cccc(N=C(c2ccccc2)c2c(O)[nH]c3cc(C(=O)N(C)C)ccc23)c1 )
Ans: 0.14

Q: API: value(readout= thermal shift delta Tm, system= LOC_OS01G10900-cb004, query= CC(C)[C@H](CO)Nc1nc(Nc2cccc(Cl)c2)c2ncn(C(C)C)c2n1 [Purvalanol A] )
Ans: 0.07

Q: API: value(readout= thermal shift delta Tm, system= LOC_OS01G10900-cb004, query= Cc1cc(O)c(-c2ccc([C@@H](C)CN)cc2)c2c1[nH]c(=O)c1sccc12 [OTS514 hydrochloride] )
Ans: 1.18

Q: API: value(readout= thermal shift delta Tm, system= LOC_OS01G10900-cb004, query= COc1cc2c3cc1Oc1c(OC)c(OC)cc4c1[C@@H](Cc1ccc(O)c(c1)Oc1ccc(cc1)C[C@@H]3N(C)CC2)N(C)CC4 [Berbamine (dihydrochloride)] )
Ans: 0.03

Q: API: value(readout= thermal shift delta Tm, system= LOC_OS01G10900-cb004, query= CC1(C)CNc2cc(NC(=O)c3cccnc3NCc3ccncc3)ccc21 [Motesanib Diphosphate (AMG-706)] )
Ans: 0.63

Q: API: value(readout= thermal shift delta Tm, system= LOC_OS01G10900-cb004, query= N=C(N)NC(=N)NCCc1ccccc1 [Phenformin HCl] )
Ans: 0.3

Q: API: value(readout= thermal shift delta Tm, system= LOC_OS01G10900-cb004, query= Cc1cccc(CC(=O)N2CCc3c2ccc(-c2cn(C)c4ncnc(N)c24)c3F)n1 )
Ans: 2.32

Q: API: value(readout= thermal shift delta Tm, system= LOC_OS01G10900-cb004, query= CC(C)Nc1cc(-c2c[nH]c(C(=O)N[C@H](CO)c3cccc(Cl)c3)c2)c(Cl)cn1 )
Ans: 0.37
